Catalogue of ΔTm at 10 µM values
- target: GSK3B (Homo sapiens, UniProt P49841)
- Sequence (P49841 35-386): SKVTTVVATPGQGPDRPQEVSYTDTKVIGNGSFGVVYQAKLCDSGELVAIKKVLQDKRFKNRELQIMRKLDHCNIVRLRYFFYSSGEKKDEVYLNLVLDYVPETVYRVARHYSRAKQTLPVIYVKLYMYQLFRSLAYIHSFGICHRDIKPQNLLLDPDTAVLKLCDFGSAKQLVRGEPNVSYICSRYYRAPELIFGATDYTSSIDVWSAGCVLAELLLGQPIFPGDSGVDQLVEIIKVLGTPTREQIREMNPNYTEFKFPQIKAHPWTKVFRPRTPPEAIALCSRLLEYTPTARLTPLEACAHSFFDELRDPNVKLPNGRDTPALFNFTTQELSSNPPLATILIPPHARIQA
- test protocol: DSF
- Assay type: binding
- Design: purchased in-house DSF panel (SGC Frankfurt)
- details: 10 μM compound
Value expressed in °C; do not type the unit.

Worked examples follow.
compound	val
CNC(=O)c1cc(Nc2ccnc(Nc3ccc(CCNC(=O)OC(C)(C)C)cc3)n2)[nH]n1 [41a]	2.9
COC(=O)c1cc(Nc2ccnc(NCCCCCCNC(=O)OC(C)(C)C)n2)[nH]n1 [21e]	8.6
CC(=O)NCCCCCCNc1nccc(Nc2cc(C3CC3)n[nH]2)n1	7.9
COC(=O)c1cc(Nc2ccnc(NCCCCCNC(=O)OC(C)(C)C)n2)[nH]n1 [21c]	8.6
Cc1cnc(Nc2cccc(CCNC(=O)OC(C)(C)C)c2)nc1Nc1cc(C2CC2)n[nH]1 [12b]	5.1

Find the measured ΔTm at 10 µM of Cc1cnc(Nc2ccc(CCNC(=O)OC(C)(C)C)cc2)nc1Nc1cc(C2CC2)n[nH]1 [12a] and report it. 5.7

Find the measured ΔTm at 10 µM of N#CCc1ccc(Nc2nccc(Nc3cc(C4CC4)[nH]n3)n2)cc1 [compound 1, reference compound] and report it. 14

Find the measured ΔTm at 10 µM of Cc1cnc(NCCCCCCNC(=O)OC(C)(C)C)nc1Nc1cc(C2CC2)n[nH]1 [12e] and report it. 5.8

Find the measured ΔTm at 10 µM of "COC(=O)c1cc(Nc2ccnc(Nc3ccc(CCN)cc3)n2)n[nH]1" and report it. 9.5

Find the measured ΔTm at 10 µM of CC(C)c1cc(Nc2ccnc(NCCCCCNC(=O)OC(C)(C)C)n2)[nH]n1 [39b] and report it. 6.2

Find the measured ΔTm at 10 µM of "COC(=O)c1cc(Nc2ccnc(NCc3ccc(N)cc3)n2)n[nH]1" and report it. 10.3

---

Catalogue of ΔTm MST3 values
- target: MST3 (Homo sapiens, UniProt Q9Y6E0)
- Construct: purchased in-house DSF panel (SGC Frankfurt)
- Sequence (Q9Y6E0 4-301): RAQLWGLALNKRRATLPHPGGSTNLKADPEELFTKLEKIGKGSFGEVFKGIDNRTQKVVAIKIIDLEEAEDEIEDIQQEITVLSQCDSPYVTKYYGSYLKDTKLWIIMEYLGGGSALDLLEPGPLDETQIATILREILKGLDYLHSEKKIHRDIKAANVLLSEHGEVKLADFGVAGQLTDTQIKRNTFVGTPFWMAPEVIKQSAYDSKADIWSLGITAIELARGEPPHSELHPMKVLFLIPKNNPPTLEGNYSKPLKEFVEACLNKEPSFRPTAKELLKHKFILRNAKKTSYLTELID
- test protocol: DSF
- Format: binding
Value expressed in °C; do not type the unit.

Worked examples follow.
compound	val
CC(C)OC(=O)c1cc(Nc2ccnc(NCc3ccc(NC(=O)OC(C)(C)C)cc3)n2)n[nH]1 [42d]	0.8
COC(=O)c1cc(Nc2ccnc(NCc3ccc(NC(=O)OC(C)(C)C)cc3)n2)[nH]n1 [21i]	0.1
COC(=O)c1cc(Nc2ccnc(NCCOCCNC(=O)OC(C)(C)C)n2)[nH]n1 [21d]	-0.3
CC(C)(C)OC(=O)Nc1ccc(CNc2nccc(Nc3cc(C(=O)OC(C)(C)C)[nH]n3)n2)cc1 [43d]	-0.3

# evaluate next
Provide measured ΔTm MST3 on MST3 (Homo sapiens, UniProt Q9Y6E0) for N#CCc1ccc(Nc2nccc(Nc3cc(C4CC4)[nH]n3)n2)cc1 [compound 1, reference compound] please. 9.3

---

- target: CDK1/Cyclin E1 (Homo sapiens)
- Construct: Full-length kinases were obtained as plasmids cloned in frame with a terminal NanoLuc-fusion; CS1810C171 (CCNE1)
- Sequence (P06493 whole entry, the tested form may be a part): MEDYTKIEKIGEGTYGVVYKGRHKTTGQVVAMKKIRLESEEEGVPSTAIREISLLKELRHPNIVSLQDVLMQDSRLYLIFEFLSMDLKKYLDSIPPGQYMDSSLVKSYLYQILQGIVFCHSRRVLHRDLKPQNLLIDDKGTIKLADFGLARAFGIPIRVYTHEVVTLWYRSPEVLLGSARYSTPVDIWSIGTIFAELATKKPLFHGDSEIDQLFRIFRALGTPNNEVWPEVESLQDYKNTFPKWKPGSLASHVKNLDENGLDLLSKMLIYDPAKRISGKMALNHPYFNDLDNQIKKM
- test protocol: NanoBRET
- details: read-out: NanoBRET EC50 ± SEM CDK1/Cyclin E1
Catalogue of EC50 values
Value expressed in nM; do not type the unit.

molecule	val
CC(C)(C)OC(=O)Nc1ccc(CNc2nccc(Nc3cc(C(=O)OC(C)(C)C)[nH]n3)n2)cc1 [43d]	582

Provide measured EC50 on CDK1/Cyclin E1 (Homo sapiens) for CC(C)OC(=O)c1cc(Nc2ccnc(NCc3ccc(NC(=O)OC(C)(C)C)cc3)n2)n[nH]1 [42d] please. 200

Provide measured EC50 on CDK1/Cyclin E1 (Homo sapiens) for N#CCc1ccc(Nc2nccc(Nc3cc(C4CC4)[nH]n3)n2)cc1 [compound 1, reference compound] please. 5.2

Provide measured EC50 on CDK1/Cyclin E1 (Homo sapiens) for COC(=O)c1cc(Nc2ccnc(NCc3ccc(NC(=O)OC(C)(C)C)cc3)n2)[nH]n1 [21i] please. 6420
